Test: chemical genetic growth profiling, strain panel (AID 1159580);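 also: tested at 20 µM; growth read once vehicle control cultures reached saturation at 30 °C; 1 = growth at the plate median or of vehicle wells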
Settings: S. cerevisiae deletion strains, growth OD, locus YJL164C, strain tpk1, stronger effect = lower value
Screen size: about 5,500 compounds; about 2,000 (36%) were called active. Another 18% or so got no clear call; they are omitted. This is one part of the list.
OUTCOME MEASURE: normalized growth
Simply state the number, no unit and no words.

Example cases with answers are listed next.
1. CC(=O)N[C@@H](CC(C)C)C(=O)O : 1.01
2. COc1cc2c(cc1OC)C(=O)OC2 : 0.996

Kindly note the recorded normalized growth for CCC(=O)O[C@H]1CCC2C3CCC4=CC(=O)CC[C@]4(C)C3CC[C@@]21C (some centres not stated) , which is 0.893

Per the record, CC1=C(C(C)O)C2=NC1C=c1[nH]c(c(C)c1C(C)O)=Cc1[nH]c(c(CCC(=O)O)c1C)C=c1[nH]c(c(C)c1CCC(=O)O)=C2 (configuration not stated) has normalized growth of 0.986

GET /value?item= CC(=O)O[C@@H]1C[C@@]2(C)C(CC[C@@H]2C(C)=O)C2CCC3=CC(=O)CC[C@]3(C)C21 (some centres not stated) &field=normalized growth returns 0.985

----------
The entries below come with measured normalized growth values attached.
Test: chemical genetic growth profiling, strain panel (AID 1159580)
Conditions: S. cerevisiae deletion strains, growth OD, locus YKR001C, strain vps1, stronger effect = lower value
About 2,000 (36%) of roughly 5,500 compounds were called active. About 18% were inconclusive and are not listed. This is one part of the list.
Field format: numeric only.

Field normalized growth (entry "CC(=O)OCC[N+](C)(C)C" ) reads 0.975

Noted for "COc1ccc2cc([C@H](C)C(=O)O)ccc2c1" : its normalized growth reads 0.943

Lookup result for "COc1cc2c(cc1OC)C(=O)OC2" ; measured normalized growth: 1.01

----------
Assay: chemical genetic growth profiling, strain panel (AID 1159580)
Conditions: S. cerevisiae deletion strains, growth OD, locus YKL190W, strain CNB1
Among all 5,500 compounds or so, about 2,000 (36%) were called active. Roughly 18% stayed inconclusive and do not appear here. No stated cut-off is given here; in the data, active means normalized growth mostly below about 0.91 (no sharp cut-off); inconclusive means no clear call, values can overlap the other calls; inactive means mostly above about 0.92. Some of the results follow.
Please state which outcome applies, choosing from active, inactive

Reference set, count: 10
1) CC1(C)C(C=C(Cl)Cl)C1C(=O)OC(C#N)c1cccc(Oc2ccccc2)c1 (stereo not drawn) : inactive
2) CCOC(=O)c1[nH]c(Cc2[nH]c(C(=O)OCC)c(C)c2C)c(C)c1C : inactive
3) NC(=O)c1ccc[n+]([C@@H]2O[C@H](COP(=O)([O-])OP(=O)(O)OC[C@H]3O[C@@H](n4cnc5c(N)ncnc54)[C@H](O)[C@@H]3O)[C@@H](O)[C@H]2O)c1 : inactive
4) COC(=O)c1sccc1OC(=O)c1c(F)cccc1F : inactive
5) O=S(=O)(Nc1cccc2cccnc12)c1cc(Cl)c(Cl)cc1Cl : active
6) CN(C)CC/C=C1\c2ccccc2Sc2ccc(Cl)cc21 : inactive
7) COc1cc2c(cc1OC)C1C(=O)c3c(OC)cc4c(c3OC1CO2)CCC(C)(C)O4 (stereo not drawn) : inactive
8) c1cncc(C2CCCCN2)c1 (stereo not drawn) : inactive
9) COc1cc(NC(C)CCCN)c2ncccc2c1 (stereo not drawn) : inactive
10) COc1ccc(OC)c(S(=O)(=O)Nc2ccc(C#N)cc2)c1 : inactive

Q: For this molecule, state the assay outcome: "COP(=O)(OC)OC=C(Cl)Cl"
A: inactive

Q: Called result for "CSc1nnnn1-c1c(C)cccc1C"
A: inactive

----------
Each entry below lists one item and its recorded normalized growth value.
Experiment: chemical genetic growth profiling, strain panel (AID 1159580);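 also: tested at 20 µM; growth read once vehicle control cultures reached saturation at 30 °C; 1 = growth at the plate median or of vehicle wells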
Settings: S. cerevisiae deletion strains, growth OD, locus YML032C, strain rad52, stronger effect = lower value
The whole screen tested about 5,500 compounds, of which about 2,000 (36%) were called active. About 18% were inconclusive and are not listed. This is one part of the list.
Simply state the number, no unit and no words.

A selection of reference data follows.
1) COc1ccc2cc([C@H](C)CO)ccc2c1 : 0.989
2) CC(N)C(=O)OC(C)(C)Cc1ccc(Cl)cc1 (stereo not given) : 0.982
3) CC(C)OC(=O)C(C)(C)Oc1ccc(C(=O)c2ccc(Cl)cc2)cc1 : 0.984

Summary for this molecule, CC(Oc1ccccc1)C(=O)N[C@@H]1C(=O)N2[C@@H]1SC(C)(C)[C@@H]2C(=O)O (stereo not given in full) : normalized growth is 1.02

Reported normalized growth for C=C1C2CC[C@H]3[C@]4(C)C[C@H](OC5OC(CO)C(OS(=O)(=O)O)C(OS(=O)(=O)O)C5OC(=O)CC(C)C)C[C@@H](C(=O)O)[C@H]4CC[C@]3(C2)[C@H]1O (stereo not given in full) was 0.984

----------
Assay: chemical genetic growth profiling, strain panel (AID 1159580);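 also: tested at 20 µM; growth read once vehicle control cultures reached saturation at 30 °C; 1 = growth at the plate median or of vehicle wells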
Settings: S. cerevisiae deletion strains, growth OD, locus YLR320W, strain mms22, stronger effect = lower value
Hit rate of the full screen: of about 5,500 compounds, about 2,000 (36%) were called active. Not shown: some 18% with an inconclusive outcome. The list shows a part of the results.
OUTCOME MEASURE: normalized growth

1) O=C(O)c1cc2ccccc2[nH]1 : 1.01 (inactive)
2) Cc1[nH]c(C)c(Cl)c(=O)c1Cl : 1 (inactive)
3) COc1cc(/C=C/C(=O)/C=C(O)/C=C/c2ccc(O)c(OC)c2)ccc1O : 0.163 (active)
4) COc1ccc2cc([C@H](C)C(=O)O)ccc2c1 : 0.955 (inactive)

For record CC1CC2C3CC(F)C4=CC(=O)C=CC4(C)C3(F)C(O)CC2(C)C1(O)C(=O)CO (stereo not drawn) the listed normalized growth is 0.993 (inactive)

Measured normalized growth, CC(C(=O)O)c1ccc(-c2ccccc2)c(F)c1 (stereo not drawn) : 1.05 (inactive)

normalized growth reported for this molecule CCN(CC)CCCC(C)Nc1ccnc2cc(Cl)ccc12 (stereo not drawn) : 1.01 (inactive)

Value of measured normalized growth for the entry "COc1cc2c(cc1OC)[C@@H]1C(=O)c3ccc(OC)c(CC=C(C)C)c3O[C@@H]1CO2" : 1.02 (inactive)

Lookup result for CCN(CC)CCCC(C)Nc1c2ccc(Cl)cc2nc2ccc(OC)cc12 (stereo not drawn) ; measured normalized growth: 0.973 (inactive)

// "CN(C)c1ccc(C(=C2C=CC(=[N+](C)C)C=C2)c2ccc(N(C)C)cc2)cc1" : normalized growth value = 0.558 (active)

Lab note: measured normalized growth of COCCc1ccc(OCC(O)CNC(C)C)cc1 (stereo not drawn) was 0.977 (inactive)

Value of normalized growth reported for the molecule "COc1cc2c(cc1OC)[C@@H]1C(=O)c3ccc4oc(C(C)C)cc4c3O[C@@H]1CO2" is 0.986 (inactive)

Entry "CCOC(=O)CCC(=O)O[C@H]1[C@H](O[C@@H]2[C@@H](C)[C@H](O[C@H]3C[C@@](C)(OC)[C@@H](O)[C@H](C)O3)[C@@H](C)C(=O)O[C@H](CC)[C@@](C)(O)[C@H](O)[C@@H](C)C(=O)[C@H](C)C[C@@]2(C)O)O[C@H](C)C[C@@H]1N(C)C" — recorded normalized growth = 0.996 (inactive)

// CC(=O)NC1SCCC1=O (stereo not drawn) : normalized growth value = 0.999 (inactive)

For this molecule ( CC(Oc1ccccc1)C(=O)N[C@@H]1C(=O)N2[C@@H]1SC(C)(C)[C@@H]2C(=O)O (stereo partly drawn) ), measured normalized growth is 0.984 (inactive)

Short answer for "CC1=C(/C=C/C(C)=C/C=C/C(C)=C/C=C/C=C(C)/C=C/C=C(C)/C=C/C(=O)[C@]2(C)C[C@@H](O)CC2(C)C)C(C)(C)C[C@H](O)C1" : normalized growth was 0.981 (inactive)

Measured normalized growth, "O=C(O)c1c2ccccc2cc2ccccc12" : 1 (inactive)

The reported normalized growth of the molecule "COc1ccc2c(c1)OCc1c-2oc2cc(OC)ccc12" was 0.625 (active)

Reported normalized growth for "CC(C)c1c(C(=O)c2ccccc2)c(-c2ccccc2)c(-c2ccc(F)cc2)n1CC[C@@H](O)C[C@@H](O)CC(=O)O" was 0.899 (inactive)

----------
Assay: chemical genetic growth profiling, strain panel (AID 1159580);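 also: tested at 20 µM; growth read once vehicle control cultures reached saturation at 30 °C; 1 = growth at the plate median or of vehicle wells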
Details: S. cerevisiae deletion strains, growth OD, locus YDL134C, strain PPH21, stronger effect = lower value
About 2,000 (36%) of roughly 5,500 compounds were called active. Not shown: some 18% with an inconclusive outcome. Some of the results follow.
Measured normalized growth accompanies every entry in the list below.
// return a plain number; no unit text

Known results for compounds:
1. CC(C)OC(=O)C(C)(C)Oc1ccc(C(=O)c2ccc(Cl)cc2)cc1 : 0.995
2. C=C1C([C@]2(C)C(CC(=O)OC)[C@@](C)(COC(C)=O)OC(=O)C[C@@H]2OC(C)=O)[C@@H](OC=O)[C@H](OC(=O)C(O)C(C)CC)[C@@]2(C)[C@H](c3ccoc3)CC(=O)C12O (some centres undefined) : 1.01
3. CN1CCC(=C2c3ccccc3CC(=O)c3sccc32)CC1 : 1.01
4. c1ccc(N=Nc2ccc(Nc3ccccc3)cc2)cc1 : 0.825
5. CC(=O)NC1SCCC1=O (centres undefined) : 1.03
6. O=C(CSc1nnnn1-c1ccccc1)NC1Cc2ccccc2C1 : 1

normalized growth reported for this compound "CN1CCC(=C2c3ccccc3Sc3ccccc32)CC1" : 1.01

Form: compound = "CS(=O)(=O)c1ccc(C2=C(c3ccccc3)C(=O)OC2)cc1" ; normalized growth = 1.01

Notebook: C=C1C2CC[C@H]3[C@]4(C)C[C@H](OC5OC(CO)C(OS(=O)(=O)O)C(OS(=O)(=O)O)C5OC(=O)CC(C)C)C[C@@H](C(=O)O)[C@H]4CC[C@]3(C2)[C@H]1O (some centres undefined) , normalized growth read as 1.01
